System: human breast adenocarcinoma cells MDA-MB-231
assay procedure: cells
Assay type: cell-based
particulars: 24 h
Non-standard residues stand in square brackets, D forms with d. Residues, ends and D or L forms follow the SMILES beside them. *: point of attachment. Decanoyl = CCCCCCCCCC(=O)*; Octanoyl = CCCCCCCC(=O)*; NH(CH2)4NH2 = NCCCCN*
Give measured IC50 for each item. Keep answers brief.

Exam item: Recall the recorded IC50 for CCCCCCCCCC(=O)N[C@H](CCSC)C(=O)N[C@H](CC(N)=O)C(=O)N1CCC[C@H]1C(=O)N[C@H](C(=O)N[C@H](Cc1ccccc1)C(=O)N1CCC[C@H]1C(=O)N[C@@H](Cc1c[nH]c2ccccc12)C(=O)N[C@@H](C(=O)N[C@@H](C)C(=O)N[C@H](C)C(=O)N[C@@H](CO)C(=O)N[C@@H](C)C(=O)NCCCCN)C(C)C)C(C)C [Compound 6, Glidonin F] (Decanoyl-[dM][dN]PV[dF]PW[dV]A[dA]SA-{NH(CH2)4NH2}) with human breast adenocarcinoma cells MDA-MB-231 and state it.
Marked response: > 20 µM

Exam item: Field entry: CCCCCCCC(=O)N[C@@H](CC(C)C)C(=O)N[C@H](C(=O)N[C@@H](Cc1ccc(O)cc1)C(=O)N[C@H](C)C(=O)N[C@@H](C)C(=O)N[C@H](C)C(=O)N[C@H](C(=O)NCCCCN)C(C)C)[C@@H](C)O [Compound 29] (Octanoyl-LTY[dA]A[dA]V-{NH(CH2)4NH2})
Marked response: 110 µM
